test.details: protein stability index of a GFP-peptide fusion (yeast GPS) (PSI 1-4); higher = more stable; sorted into four equal gates, so the index is relative within each strain
experimental.context: san1∆
Label n if protein stability index falls below 3; label y in every other case.

Known results for sequences:
[[record]]
construct_sequence = "NECQRLQNIVMDCTKEE [YIL149C/MLP2]"
group_label = "y"

[[record]]
construct_sequence = "PFGAKSTKSNKTRNPLT [RPL8A]"
group_label = "n"

[[record]]
construct_sequence = "AVVGQQIISGNRVPDGF [RPO31]"
group_label = "n"

[[record]]
construct_sequence = "LMQNMMNMFGGGMGGGM [SRP54]"
group_label = "n"

[[record]]
construct_sequence = "GESEKSSDVDMDDEEWR [RPC53]"
group_label = "y"

[[record]]
construct_sequence = "MGGIREKKAEYFAKLRE [RPP0]"
group_label = "y"


## Task Is the recorded value of protein stability index equal to or greater than 3 for this sequence? YLAHEDNKEKDFELEIS [PRE10]
## Result y

## Task API: above_or_equal(metric=protein stability index, cutoff=3) for item FVAKLAAQIFGSYNAFE [COR1]
## Result n

## Task Please tell me: is the sequence GLFDSFTNGVLAVTNLL [YML031W/NDC1] at or over 3 in terms of protein stability index?
## Result n

###

# maps each entry to its protein stability index
test.details: protein stability index of a GFP-peptide fusion (yeast GPS) (PSI 1-4); higher = more stable; sorted into four equal gates, so the index is relative within each strain
experimental.context: san1∆
Lab note: write the figure by itself, no unit.

[[record]]
construct_sequence = "HPNRVLEHLHSTAFQNT [COR1]"
numeric_readout = 2.4

[[record]]
construct_sequence = "GIGSLTDLMSIVQELLD [RPC34]"
numeric_readout = 3.23

[[record]]
construct_sequence = "KKMMNTSDSESTLYKYL [SWI3]"
numeric_readout = 2.79

[[record]]
construct_sequence = "SYFKNSVIVKFHSEPDR [LIN1]"
numeric_readout = 2.44


## Task Which protein stability index value is on record for DLPDTEGLELLGWIHTQ [PRP8] ?
## Result 3.22

## Task Bench note: what protein stability index did TIEVLDEVITEGQADID [POP7] show?
## Result 3.06

## Task Which value of protein stability index has been reported for YLACKVEECPQYIRTLV [SSN8] in the records?
## Result 1.68

## Task Item DPKFRRNHKHALHGTAK [RPL29] has what recorded protein stability index?
## Result 2.48

## Task Reported protein stability index, sequence IKYEFNGIPLKSKERSS [YMR129W/POM152] : ____
## Result 1.52

###

test.details: protein stability index of a GFP-peptide fusion (yeast GPS) (PSI 1-4); higher = more stable; sorted into four equal gates, so the index is relative within each strain
experimental.context: pdr5∆
Label t for high-side protein stability index (at or above 3) and f for low-side protein stability index (below it).

[[record]]
construct_sequence = "ERGGKFHESGSQYSTMV [RGR1]"
group_label = "t"


## Task Would you say SRILKAQSRNVEIEKRI [YGR119C/NUP57] shows protein stability index at minimum 3?
## Result t

## Task Textbook exercise: given the entry SLENNIREFPEYFAAQA [RPL10] , state whether its protein stability index is greater than or equal to 3.
## Result f

## Task Textbook exercise: given the entry LTSQAPQTTQMFQSQSQ [YDL088C/ASM4] , state whether its protein stability index is greater than or equal to 3.
## Result t

## Task Decide: protein stability index of ERAKNVNGLLQVLMDIN [GAL11] >= 3?
## Result t

## Task Check the entry TVTDDARIFEFPKTTVA [RPL18A] : does protein stability index equal or exceed 3?
## Result f

## Task Evaluate LQPLEEGLIIDTDKLPI [SIN4] : protein stability index at minimum 3?
## Result f

###

test.details: protein stability index of a GFP-peptide fusion (yeast GPS) (PSI 1-4); higher = more stable; sorted into four equal gates, so the index is relative within each strain
experimental.context: pdr5∆
endpoint: protein stability index
Lab note: record just the number, no unit beside it.

## Task Tell me the measured protein stability index of AILYTKPGHVLQEEWDQ [YGR119C/NUP57] , please.
## Result 3.25

## Task Look at this sequence and give its reported protein stability index. IHGVLKNVDREVVSEAI [FAS2]
## Result 3.4

## Task Fill blank: measured protein stability index of the sequence TLNSRALSGLYYKNFHN [SNM1] is ____.
## Result 2.38

## Task For DELRKQELISKAFTNWN [ISW2] , what is its reported protein stability index?
## Result 2.45

## Task Give the measured protein stability index of NATLQALYRVNDLRDMI [UBP6] .
## Result 2.95

## Task Query: protein stability index; subject: NPSITRLEEESSWQIYS [RRP4]
## Result 3.07

###

test.details: protein stability index of a GFP-peptide fusion (yeast GPS) (PSI 1-4); higher = more stable; sorted into four equal gates, so the index is relative within each strain
experimental.context: ubr1∆
We'd kindly ask you to apply these protein stability index classes: low-valued: < 2; mid-valued: ≥ 2 and < 3; high-valued: ≥ 3

[[record]]
construct_sequence = "SNGSGIVAAGGGSGAAT [CSL4]"
group_label = "high-valued"

[[record]]
construct_sequence = "TTRNGFMEAQGAGIQII [FAS2]"
group_label = "high-valued"

[[record]]
construct_sequence = "LEHVLLVPTASFFIASQ [FAS1]"
group_label = "low-valued"

[[record]]
construct_sequence = "ILNSYGVLKPDITFFGE [SIR2]"
group_label = "high-valued"

[[record]]
construct_sequence = "KRPNNKTLEKLESTIAE [IRR1]"
group_label = "high-valued"


## Task Please classify: SDINQNDDSSSMNATMR [YDL088C/ASM4]
## Result mid-valued

###

test.details: protein stability index of a GFP-peptide fusion (yeast GPS) (PSI 1-4); higher = more stable; sorted into four equal gates, so the index is relative within each strain
experimental.context: doa10∆
Item-by-item account of protein stability index
Give the figure by itself; no unit, no explanation.

[[record]]
construct_sequence = "GSLWVEFCDEPSVGVKT [RPB5]"
numeric_readout = 2.84

[[record]]
construct_sequence = "SNEAAKPSFSFPGKPVD [YOR098C/NUP1]"
numeric_readout = 2.84


Moving on to the next sequence.
## Task Any idea what protein stability index was measured for PAEVGRAIRSEKYGKQV [BRR2] ?
## Result 3.27

###

test.details: protein stability index of a GFP-peptide fusion (yeast GPS) (PSI 1-4); higher = more stable; sorted into four equal gates, so the index is relative within each strain
experimental.context: doa10∆
// reported protein stability index for each item listed
Give the figure only, with no unit attached.

Field: example entries. Status: answers known.
[[record]]
construct_sequence = "YNVENQQYVAAGDLRAL [FAS1]"
numeric_readout = 2.81

[[record]]
construct_sequence = "DPKFVNSLLAKLKDSKK [YML103C/NUP188]"
numeric_readout = 2.54

[[record]]
construct_sequence = "CTESTRENALYDYYALQ [SNF2]"
numeric_readout = 1.83


## Task Looking for the measured protein stability index of YFSNKTSTGIIRCHRED [POP5] , can you help?
## Result 2.98

## Task Can you look up the measured protein stability index of KQIVHDSGRGAPLAKVV [RPL2A] for me?
## Result 2.16

###

The sequences listed here are annotated with their protein stability index.
test.details: protein stability index of a GFP-peptide fusion (yeast GPS) (PSI 1-4); higher = more stable; sorted into four equal gates, so the index is relative within each strain
experimental.context: ubr1∆

# annotated cases, reported protein stability index shown
[[record]]
construct_sequence = "DYNDVEVNSKKKNKRAL [BRR2]"
result = 3.02

[[record]]
construct_sequence = "KQLQQPKSSPLKKNNYN [SIR4]"
result = 3.07

[[record]]
construct_sequence = "SANTNNTCTISTSKFES [SWP82]"
result = 2.13

[[record]]
construct_sequence = "ITSLYALIRRDFTLIPR [CDC53]"
result = 1.41

[[record]]
construct_sequence = "DLKKKLNSLKDERSQGE [SMC4]"
result = 3.71

[[record]]
construct_sequence = "VQCHGSFATATCVTCHW [SIR2]"
result = 2.51

[[record]]
construct_sequence = "AHTGATPIAGRFTPGSF [RPS0A]"
result = 2.81

[[record]]
construct_sequence = "TIEHAADITDGNNTELT [YCG1]"
result = 3.31

[[record]]
construct_sequence = "PLEKITDAYLDQYLWYE [PRP8]"
result = 3.18

[[record]]
construct_sequence = "PLARNYIKSMDLISKKT [RPR2]"
result = 2.94


## Task Would you kindly share the measured protein stability index for IQQLHSVLNPFLLRRVK [ISW2] ?
## Result 2.37

## Task Param item = FLDSMAQKYASIVGVDL [FAS2] ; retrieve measured protein stability index.
## Result 2.61

## Task Suppose we examine the sequence KGTEASNDIIDKPYLLR [YDL116W/NUP84] ; what protein stability index value has been reported?
## Result 2.76

Cited source: the supplement of paper PMC9732359
